The reader will find reported pKd values listed item by item below.
- ASSAYED_TARGET: T1, GFP-9S library array, motif 4 ND N98D;D124K (synthetic construct, N98D;D124K)
- T1 chain: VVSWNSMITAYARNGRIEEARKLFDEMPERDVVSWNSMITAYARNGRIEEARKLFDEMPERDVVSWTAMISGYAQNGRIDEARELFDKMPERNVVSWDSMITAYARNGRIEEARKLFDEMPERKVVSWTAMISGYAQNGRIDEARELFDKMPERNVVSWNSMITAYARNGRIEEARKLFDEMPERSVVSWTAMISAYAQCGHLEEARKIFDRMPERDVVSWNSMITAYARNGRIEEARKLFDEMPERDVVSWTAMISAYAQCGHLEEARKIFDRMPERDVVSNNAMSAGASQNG
- METHOD: high-throughput RNA pulldown from lysate on Ni-NTA beads; HRP: 50 mM Tris pH 8, 150 mM NaCl, 1 mM beta-mercaptoethanol, 50 ug/ml BSA, 3 ug/ml yeast RNA, 0.5% heparin; ITC and FP: Tris pH 8, 200 mM KCl, 5% glycerol; MST: 50 mM Tris pH 8, 200 mM NaCl, 1 mM DTT, BSA, heparin, 0.05% Tween 20
- RUN_CONDITIONS: tags: N-terminal His-eGFP; label: 5' IRDye 800CW
pKd: −log10 of the molar value.
OBSERVABLE: pKd

In [3]: df
Out[3]:
                            binder  measured_result
0  AUUAAACGUGA (ssRNA) [IR-rpoA-A]             6.48
1  AUUAUACGUGA (ssRNA) [IR-rpoA-U]             6.32

Entry source: paper PMC8809517
